These data points were gathered from ChEMBL document CHEMBL4689842.

System: HEK-293T
Assay: Multiplex assay against HEK293T
Format: toxicity, cell-based
Settings: human, 24 h, 1 µM, compound concentration 1 uM, replicate 1
quantity_kind: Total Cell Count
Response field accepts a number only; no unit should be typed.

// below: answered compounds
{"columns": ["compound", "Total Cell Count"],
 "data": [
  ["CNC(=O)Nc1ccc(-c2nc(N3CC4CCC(C3)O4)c3cnn(C4CCC5(CC4)OCCO5)c3n2)cc1", 151],
  ["CC(C)NC(=O)N1CC[C@H](NC2=Nc3cc(F)ccc3N(CC(F)F)c3ccc(Cl)cc32)C1", 178],
  ["Cc1ccccc1C(c1ccccc1C)N1C2CCC1CC(O)(c1ccccc1)C2 (stereo not drawn)", 254],
  ["CNC(=O)Nc1ccc2c(c1)[C@@]1(CC2)OC(=O)N(CC(=O)N(Cc2ccc(F)cc2)[C@@H](C)C(F)(F)F)C1=O", 669],
  ["COc1ccccc1CN[C@H]1C2CCN(CC2)[C@H]1C(c1ccccc1)c1ccccc1", 253],
  ["CCCSc1nc(N[C@@H]2C[C@H]2c2ccc(F)c(F)c2)c2nnn([C@@H]3C[C@H](OCCO)[C@@H](O)[C@H]3O)c2n1", 181],
  ["COc1cc(Nc2nccc(-c3cnn4nc(OC)ccc34)n2)cc(C(F)(F)F)c1", 221]
]}

As a next step, examine the compound that follows.
## Input Please report the recorded Total Cell Count for O=C(c1cc2c(cc1F)OC(c1ccc(F)cc1)(c1ccc(Cl)cc1Cl)O2)N1CCOCC1 (stereo not drawn) .
## Output 216
